- Tested on: IL-2 stimulated STAT5 phosphorylation in Tall-1 human T cell line
- measurement.notes: Inhibition of IL-2 stimulated pSTAT5 in Tall-1 T cells
- Format: cell-based
- experimental.context: IL-2 300 ng/mL, pSTAT5 AlphaLisa, Tall-1 cells, read-out: Tall-1 pIC50 (converted)

[
  {
    "compound": "CCCN1Cc2[nH]c(-c3n[nH]c4cc(-c5ccc(O)cc5CC)ccc34)nc2C[C@H]1C(=O)N1CC(C)(N(C)C)C1",
    "IC50 [nM]": 2.51
  },
  {
    "compound": "CCCN1Cc2[nH]c(-c3n[nH]c4cc(-c5ccc(O)cc5CC)ccc34)nc2C[C@H]1C(=O)N1CC(N(C)C)C1",
    "IC50 [nM]": 2
  },
  {
    "compound": "CCc1cc(O)c(F)cc1-c1ccc2c(-c3nc4c([nH]3)CN(C(C)C)[C@H](C(=O)N3CC(N(C)C)C3)C4)n[nH]c2c1",
    "IC50 [nM]": 1.58
  }
]

----------
- measurement.notes: Lung and plasma exposure in mice after oral aspiration
- Assay type: in vivo
- experimental.context: Balb/c, mouse, lung and plasma, other: oral aspiration, 50 µg/animal, lung ng/g to plasma ng/mL, mice, read-out: Lung to Plasma ratio at 5 hr

[
  {
    "compound": "CCc1cc(O)ccc1-c1ccc2c(-c3nc4c([nH]3)CN(C(C)C)[C@H](C(=O)N3CC(C)(N(C)C)C3)C4)n[nH]c2c1",
    "Kp at 5 h": 271
  },
  {
    "compound": "CCc1cc(O)ccc1-c1ccc2c(-c3nc4c([nH]3)CN(CC)[C@H](C(=O)N3CC(N(C)C)C3)C4)n[nH]c2c1",
    "Kp at 5 h": 339
  },
  {
    "compound": "CCc1cc(O)ccc1-c1ccc2c(-c3nc4c([nH]3)CN(CC)[C@H](C(=O)N3CC(C)(N(C)C)C3)C4)n[nH]c2c1",
    "Kp at 5 h": 216
  },
  {
    "compound": "CCCN1Cc2[nH]c(-c3n[nH]c4cc(-c5ccc(O)cc5CC)ccc34)nc2C[C@H]1C(=O)N1CC(C)(N(C)C)C1",
    "Kp at 5 h": 330
  },
  {
    "compound": "CCc1cc(O)c(F)cc1-c1ccc2c(-c3nc4c([nH]3)CN(C(C)C)[C@H](C(=O)N3CC(N(C)C)C3)C4)n[nH]c2c1",
    "Kp at 5 h": 381
  },
  {
    "compound": "CCCN1Cc2[nH]c(-c3n[nH]c4cc(-c5ccc(O)cc5CC)ccc34)nc2C[C@H]1C(=O)N1CC(N(C)C)C1",
    "Kp at 5 h": 281
  }
]

----------
- measurement.notes: Lung and plasma exposure in mice after oral aspiration
- Type: in vivo
- experimental.context: mouse, lung, other: oral aspiration, 50 µg/animal, Balb/c mice, 1 mg/mL, 50 μL via oral aspiration, read-out: Lung Concentration (ng/g) at 5 hr
Please enter Yes where concentration at 5 h is greater than or equal to 8000 ng/g, and No where it is lower.

[
  {
    "compound": "CCCN1Cc2[nH]c(-c3n[nH]c4cc(-c5ccc(O)cc5CC)ccc34)nc2C[C@H]1C(=O)N1CC(N(C)C)C1",
    "label.value": "No"
  },
  {
    "compound": "CCc1cc(O)ccc1-c1ccc2c(-c3nc4c([nH]3)CN(CC)[C@H](C(=O)N3CC(N(C)C)C3)C4)n[nH]c2c1",
    "label.value": "No"
  },
  {
    "compound": "CCc1cc(O)ccc1-c1ccc2c(-c3nc4c([nH]3)CN(CC)[C@H](C(=O)N3CC(C)(N(C)C)C3)C4)n[nH]c2c1",
    "label.value": "No"
  },
  {
    "compound": "CCCN1Cc2[nH]c(-c3n[nH]c4cc(-c5ccc(O)cc5CC)ccc34)nc2C[C@H]1C(=O)N1CC(C)(N(C)C)C1",
    "label.value": "No"
  },
  {
    "compound": "CCc1cc(O)ccc1-c1ccc2c(-c3nc4c([nH]3)CN(C(C)C)[C@H](C(=O)N3CC(C)(N(C)C)C3)C4)n[nH]c2c1",
    "label.value": "Yes"
  },
  {
    "compound": "CCc1cc(O)c(F)cc1-c1ccc2c(-c3nc4c([nH]3)CN(C(C)C)[C@H](C(=O)N3CC(N(C)C)C3)C4)n[nH]c2c1",
    "label.value": "Yes"
  }
]

----------
- system: UniProt:P52333
- Sequence (P52333 whole entry): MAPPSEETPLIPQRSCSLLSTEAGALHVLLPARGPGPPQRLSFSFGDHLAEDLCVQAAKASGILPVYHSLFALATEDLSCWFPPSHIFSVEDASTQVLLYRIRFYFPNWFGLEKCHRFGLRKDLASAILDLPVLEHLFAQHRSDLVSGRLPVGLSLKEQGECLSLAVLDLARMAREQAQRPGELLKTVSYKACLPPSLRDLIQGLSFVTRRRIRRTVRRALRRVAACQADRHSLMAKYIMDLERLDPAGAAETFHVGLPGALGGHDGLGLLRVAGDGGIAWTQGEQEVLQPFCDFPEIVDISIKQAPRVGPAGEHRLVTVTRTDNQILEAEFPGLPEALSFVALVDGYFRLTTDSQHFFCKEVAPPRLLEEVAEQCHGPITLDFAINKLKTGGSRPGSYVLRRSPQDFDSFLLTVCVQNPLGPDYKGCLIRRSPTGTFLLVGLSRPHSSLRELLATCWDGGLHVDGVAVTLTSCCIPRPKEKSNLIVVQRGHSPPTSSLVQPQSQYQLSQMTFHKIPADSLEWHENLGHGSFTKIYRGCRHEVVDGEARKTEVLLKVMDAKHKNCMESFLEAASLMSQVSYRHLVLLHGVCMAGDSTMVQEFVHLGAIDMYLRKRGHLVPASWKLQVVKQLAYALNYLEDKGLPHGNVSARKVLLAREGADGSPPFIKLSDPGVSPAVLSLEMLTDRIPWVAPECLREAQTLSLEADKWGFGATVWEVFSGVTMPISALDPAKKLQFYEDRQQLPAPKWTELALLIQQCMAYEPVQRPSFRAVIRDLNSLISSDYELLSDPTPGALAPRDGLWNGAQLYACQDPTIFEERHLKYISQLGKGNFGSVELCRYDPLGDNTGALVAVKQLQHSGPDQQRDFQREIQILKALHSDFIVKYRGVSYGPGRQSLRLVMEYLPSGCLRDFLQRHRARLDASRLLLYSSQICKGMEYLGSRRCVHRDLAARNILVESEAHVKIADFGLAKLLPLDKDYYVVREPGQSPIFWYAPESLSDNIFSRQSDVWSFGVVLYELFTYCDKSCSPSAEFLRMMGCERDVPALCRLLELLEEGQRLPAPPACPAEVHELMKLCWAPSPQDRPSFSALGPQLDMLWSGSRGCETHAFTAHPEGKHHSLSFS
- measurement.notes: Biochemical JAK kinase assay (LanthaScreen), JAK3
- experimental.context: converted from pIC50 using Cheng-Prusoff; ATP 1.6 μM
// values below are reported JAK3 pKi

[
  {
    "compound": "CCCN1Cc2[nH]c(-c3n[nH]c4cc(-c5ccc(O)cc5CC)ccc34)nc2C[C@H]1C(=O)N1CC(N(C)C)C1",
    "JAK3 pKi": 10.3
  },
  {
    "compound": "CCc1cc(O)ccc1-c1ccc2c(-c3nc4c([nH]3)CN(C(C)C)[C@H](C(=O)N3CC(C)(N(C)C)C3)C4)n[nH]c2c1",
    "JAK3 pKi": 9.9
  },
  {
    "compound": "CCCN1Cc2[nH]c(-c3n[nH]c4cc(-c5ccc(O)cc5CC)ccc34)nc2C[C@H]1C(=O)N1CC(C)(N(C)C)C1",
    "JAK3 pKi": 9.8
  },
  {
    "compound": "CCc1cc(O)ccc1-c1ccc2c(-c3nc4c([nH]3)CN(CC)[C@H](C(=O)N3CC(N(C)C)C3)C4)n[nH]c2c1",
    "JAK3 pKi": 10.3
  },
  {
    "compound": "CCc1cc(O)c(F)cc1-c1ccc2c(-c3nc4c([nH]3)CN(C(C)C)[C@H](C(=O)N3CC(N(C)C)C3)C4)n[nH]c2c1",
    "JAK3 pKi": 10.1
  },
  {
    "compound": "CCc1cc(O)ccc1-c1ccc2c(-c3nc4c([nH]3)CN(CC)[C@H](C(=O)N3CC(C)(N(C)C)C3)C4)n[nH]c2c1",
    "JAK3 pKi": 10.2
  }
]

----------
- system: JAK2 (Homo sapiens (Human))
- Sequence (O60674 whole entry): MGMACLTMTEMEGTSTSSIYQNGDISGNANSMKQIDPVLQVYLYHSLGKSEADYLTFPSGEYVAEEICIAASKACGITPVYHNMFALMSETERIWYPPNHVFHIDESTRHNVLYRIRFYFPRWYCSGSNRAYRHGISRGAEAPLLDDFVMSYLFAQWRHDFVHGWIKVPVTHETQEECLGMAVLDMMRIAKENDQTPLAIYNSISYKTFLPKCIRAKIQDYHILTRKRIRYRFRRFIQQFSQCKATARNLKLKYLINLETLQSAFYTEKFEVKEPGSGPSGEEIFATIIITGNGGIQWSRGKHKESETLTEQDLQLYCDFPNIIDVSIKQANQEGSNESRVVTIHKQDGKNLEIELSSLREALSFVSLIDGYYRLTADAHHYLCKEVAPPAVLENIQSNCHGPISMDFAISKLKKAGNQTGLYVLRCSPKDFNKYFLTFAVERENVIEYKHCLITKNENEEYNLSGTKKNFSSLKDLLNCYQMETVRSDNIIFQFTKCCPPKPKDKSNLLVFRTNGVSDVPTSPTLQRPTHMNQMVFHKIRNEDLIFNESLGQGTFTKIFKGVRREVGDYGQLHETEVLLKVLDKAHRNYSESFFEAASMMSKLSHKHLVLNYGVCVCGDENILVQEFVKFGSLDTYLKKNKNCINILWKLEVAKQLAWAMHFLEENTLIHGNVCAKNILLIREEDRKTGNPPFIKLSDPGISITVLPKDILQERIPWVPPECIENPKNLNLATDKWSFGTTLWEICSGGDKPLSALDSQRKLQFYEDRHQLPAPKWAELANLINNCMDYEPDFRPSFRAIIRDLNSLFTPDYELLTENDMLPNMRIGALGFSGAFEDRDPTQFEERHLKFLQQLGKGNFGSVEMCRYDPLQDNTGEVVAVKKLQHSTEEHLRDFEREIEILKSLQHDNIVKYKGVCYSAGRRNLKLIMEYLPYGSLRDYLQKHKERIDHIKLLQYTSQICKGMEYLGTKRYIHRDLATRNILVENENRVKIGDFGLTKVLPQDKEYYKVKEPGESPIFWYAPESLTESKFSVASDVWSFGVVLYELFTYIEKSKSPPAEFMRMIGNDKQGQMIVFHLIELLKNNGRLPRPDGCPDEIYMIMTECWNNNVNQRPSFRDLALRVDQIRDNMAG
- measurement.notes: Biochemical JAK kinase assay (LanthaScreen), JAK2
- experimental.context: converted from pIC50 using Cheng-Prusoff; ATP 3 μM
// values below are reported JAK2 pKi

[
  {
    "compound": "CCc1cc(O)ccc1-c1ccc2c(-c3nc4c([nH]3)CN(C(C)C)[C@H](C(=O)N3CC(C)(N(C)C)C3)C4)n[nH]c2c1",
    "system": "JAK2 (Homo sapiens (Human))",
    "JAK2 pKi": 10.8
  },
  {
    "compound": "CCc1cc(O)ccc1-c1ccc2c(-c3nc4c([nH]3)CN(CC)[C@H](C(=O)N3CC(C)(N(C)C)C3)C4)n[nH]c2c1",
    "system": "JAK2 (Homo sapiens (Human))",
    "JAK2 pKi": 10.6
  },
  {
    "compound": "CCc1cc(O)ccc1-c1ccc2c(-c3nc4c([nH]3)CN(CC)[C@H](C(=O)N3CC(N(C)C)C3)C4)n[nH]c2c1",
    "system": "JAK2 (Homo sapiens (Human))",
    "JAK2 pKi": 10.7
  },
  {
    "compound": "CCCN1Cc2[nH]c(-c3n[nH]c4cc(-c5ccc(O)cc5CC)ccc34)nc2C[C@H]1C(=O)N1CC(C)(N(C)C)C1",
    "system": "JAK2 (Homo sapiens (Human))",
    "JAK2 pKi": 10.5
  }
]

----------
- system: UniProt:P29597
- Sequence (P29597 whole entry): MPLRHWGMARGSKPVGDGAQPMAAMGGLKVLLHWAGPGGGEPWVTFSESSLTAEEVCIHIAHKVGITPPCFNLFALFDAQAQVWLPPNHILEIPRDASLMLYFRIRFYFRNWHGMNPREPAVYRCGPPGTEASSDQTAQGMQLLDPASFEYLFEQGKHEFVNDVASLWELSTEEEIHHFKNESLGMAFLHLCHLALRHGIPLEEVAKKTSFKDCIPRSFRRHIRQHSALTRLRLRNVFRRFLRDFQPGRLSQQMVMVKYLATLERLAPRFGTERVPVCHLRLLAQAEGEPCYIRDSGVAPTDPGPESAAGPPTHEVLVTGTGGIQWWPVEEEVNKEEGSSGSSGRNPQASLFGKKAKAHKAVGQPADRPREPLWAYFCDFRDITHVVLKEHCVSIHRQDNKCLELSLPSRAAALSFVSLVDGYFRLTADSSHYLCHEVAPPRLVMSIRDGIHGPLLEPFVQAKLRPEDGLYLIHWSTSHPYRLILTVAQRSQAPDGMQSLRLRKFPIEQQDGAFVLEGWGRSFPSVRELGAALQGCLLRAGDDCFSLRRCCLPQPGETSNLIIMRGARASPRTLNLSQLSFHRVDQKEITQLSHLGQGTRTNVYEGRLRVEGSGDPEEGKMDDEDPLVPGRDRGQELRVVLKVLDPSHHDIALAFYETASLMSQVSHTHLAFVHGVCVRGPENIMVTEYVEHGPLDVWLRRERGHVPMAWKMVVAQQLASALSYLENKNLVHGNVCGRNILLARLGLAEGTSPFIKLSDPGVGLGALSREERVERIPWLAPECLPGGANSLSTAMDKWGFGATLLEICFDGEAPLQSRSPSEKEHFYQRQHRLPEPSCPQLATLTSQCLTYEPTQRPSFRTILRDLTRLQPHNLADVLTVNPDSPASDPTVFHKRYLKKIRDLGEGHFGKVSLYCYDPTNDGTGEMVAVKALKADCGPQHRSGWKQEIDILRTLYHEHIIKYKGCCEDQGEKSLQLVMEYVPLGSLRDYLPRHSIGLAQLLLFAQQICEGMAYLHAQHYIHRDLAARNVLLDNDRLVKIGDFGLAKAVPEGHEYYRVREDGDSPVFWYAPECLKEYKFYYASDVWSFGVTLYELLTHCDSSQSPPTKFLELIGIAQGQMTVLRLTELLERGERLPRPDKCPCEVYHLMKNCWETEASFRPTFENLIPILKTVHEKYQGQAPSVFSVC
- measurement.notes: Biochemical JAK kinase assay (LanthaScreen), Tyk2
- experimental.context: converted from pIC50 using Cheng-Prusoff; ATP 10 μM

[
  {
    "compound": "CCc1cc(O)ccc1-c1ccc2c(-c3nc4c([nH]3)CN(CC)[C@H](C(=O)N3CC(N(C)C)C3)C4)n[nH]c2c1",
    "system": "UniProt:P29597",
    "Tyk2 pKi": 9.2
  },
  {
    "compound": "CCCN1Cc2[nH]c(-c3n[nH]c4cc(-c5ccc(O)cc5CC)ccc34)nc2C[C@H]1C(=O)N1CC(C)(N(C)C)C1",
    "system": "UniProt:P29597",
    "Tyk2 pKi": 9.0
  },
  {
    "compound": "CCCN1Cc2[nH]c(-c3n[nH]c4cc(-c5ccc(O)cc5CC)ccc34)nc2C[C@H]1C(=O)N1CC(N(C)C)C1",
    "system": "UniProt:P29597",
    "Tyk2 pKi": 9.0
  },
  {
    "compound": "CCc1cc(O)ccc1-c1ccc2c(-c3nc4c([nH]3)CN(CC)[C@H](C(=O)N3CC(C)(N(C)C)C3)C4)n[nH]c2c1",
    "system": "UniProt:P29597",
    "Tyk2 pKi": 9.1
  },
  {
    "compound": "CCc1cc(O)ccc1-c1ccc2c(-c3nc4c([nH]3)CN(C(C)C)[C@H](C(=O)N3CC(N(C)C)C3)C4)n[nH]c2c1",
    "system": "UniProt:P29597",
    "Tyk2 pKi": 9.1
  },
  {
    "compound": "CCc1cc(O)c(F)cc1-c1ccc2c(-c3nc4c([nH]3)CN(C(C)C)[C@H](C(=O)N3CC(N(C)C)C3)C4)n[nH]c2c1",
    "system": "UniProt:P29597",
    "Tyk2 pKi": 9.5
  },
  {
    "compound": "CCc1cc(O)ccc1-c1ccc2c(-c3nc4c([nH]3)CN(C(C)C)[C@H](C(=O)N3CC(C)(N(C)C)C3)C4)n[nH]c2c1",
    "system": "UniProt:P29597",
    "Tyk2 pKi": 9.1
  }
]

Where do these numbers come from? They come from patent US10844057B2.
